# protocol details: Volume of distribution at steady state in rat at 2 mg/kg, iv after 24 hrs
# Assay type: ADME, organism-based
# Parameters: dose 2 mg/kg, route intravenous
# details: in vivo, read-out: Vdss
measurement kind: Vd (L/kg)

[P] CCc1nn(-c2ccccc2)c2cc(N3CCN(C4CCNC4)CC3)ccc12 (configuration not stated)
[Q] CCc1nn(-c2ccccc2)c2cc(N3CC4CNCC4C3)ccc12 (configuration not stated)
Query: For the pair P and Q , which entry has the numerically smaller recorded Vd? Selection: enter the item's label.
Result: Q
(Q: 7.81 L/kg, P: 13.9 L/kg)
